system: Saccharomyces cerevisiae; assay: protein stability index of tFT-peptide fusion (C-terminal peptide) (PSI (0-1 scale)); higher = more stable (slower turnover); details: genetic background: cdc53-1; temperature: 37 C
Outcome: true (1) for protein stability index of at least 0.5; false (0) for anything lower.

[
  {
    "SEQ": "YPRLVGGCWFRL",
    "TEST TARGET": "Saccharomyces cerevisiae",
    "CLASSIFICATION": "false (0)"
  },
  {
    "SEQ": "EWVGIFRGVSVF",
    "TEST TARGET": "Saccharomyces cerevisiae",
    "CLASSIFICATION": "false (0)"
  },
  {
    "SEQ": "GHYQGVCHRRIC",
    "TEST TARGET": "Saccharomyces cerevisiae",
    "CLASSIFICATION": "true (1)"
  },
  {
    "SEQ": "GCLSFVAAVHLH",
    "TEST TARGET": "Saccharomyces cerevisiae",
    "CLASSIFICATION": "true (1)"
  },
  {
    "SEQ": "CWDNTLKTMRQM",
    "TEST TARGET": "Saccharomyces cerevisiae",
    "CLASSIFICATION": "true (1)"
  },
  {
    "SEQ": "KALFPGLLLCAF",
    "TEST TARGET": "Saccharomyces cerevisiae",
    "CLASSIFICATION": "false (0)"
  },
  {
    "SEQ": "EKIIVAVLFVVP",
    "TEST TARGET": "Saccharomyces cerevisiae",
    "CLASSIFICATION": "false (0)"
  },
  {
    "SEQ": "ISSYKFLRIVLV",
    "TEST TARGET": "Saccharomyces cerevisiae",
    "CLASSIFICATION": "false (0)"
  },
  {
    "SEQ": "GLVVMFVIAGGG",
    "TEST TARGET": "Saccharomyces cerevisiae",
    "CLASSIFICATION": "false (0)"
  },
  {
    "SEQ": "PYHAPRPPFSLF",
    "TEST TARGET": "Saccharomyces cerevisiae",
    "CLASSIFICATION": "true (1)"
  },
  {
    "SEQ": "VKSAVLLFFLVT",
    "TEST TARGET": "Saccharomyces cerevisiae",
    "CLASSIFICATION": "false (0)"
  },
  {
    "SEQ": "FFFFFIHFLCYF",
    "TEST TARGET": "Saccharomyces cerevisiae",
    "CLASSIFICATION": "false (0)"
  },
  {
    "SEQ": "IKSIKQNKIKTI",
    "TEST TARGET": "Saccharomyces cerevisiae",
    "CLASSIFICATION": "true (1)"
  },
  {
    "SEQ": "FLLLVVYVSLYS",
    "TEST TARGET": "Saccharomyces cerevisiae",
    "CLASSIFICATION": "false (0)"
  },
  {
    "SEQ": "LLVLPFFSLSRF",
    "TEST TARGET": "Saccharomyces cerevisiae",
    "CLASSIFICATION": "true (1)"
  },
  {
    "SEQ": "FSSWPFFSFYLS",
    "TEST TARGET": "Saccharomyces cerevisiae",
    "CLASSIFICATION": "true (1)"
  },
  {
    "SEQ": "WLSISNLVIACR",
    "TEST TARGET": "Saccharomyces cerevisiae",
    "CLASSIFICATION": "false (0)"
  },
  {
    "SEQ": "LFHVWSLRFFWL",
    "TEST TARGET": "Saccharomyces cerevisiae",
    "CLASSIFICATION": "true (1)"
  },
  {
    "SEQ": "DNTYRIDIKNKQ",
    "TEST TARGET": "Saccharomyces cerevisiae",
    "CLASSIFICATION": "true (1)"
  },
  {
    "SEQ": "VVGFVFSCWWSW",
    "TEST TARGET": "Saccharomyces cerevisiae",
    "CLASSIFICATION": "false (0)"
  }
]

---

test system: Saccharomyces cerevisiae; assay: protein stability index of tFT-peptide fusion (C-terminal peptide) (PSI (0-1 scale)); higher = more stable (slower turnover); conditions: genetic background: wild type; temperature: 30 C
Outcome: Condition met for protein stability index of at least 0.7; Condition not met for anything lower.

[
  {
    "SEQ": "FRSPRFLRSPPR",
    "CLASSIFICATION": "Condition met"
  },
  {
    "SEQ": "RDRHFKIQTCIM",
    "CLASSIFICATION": "Condition not met"
  },
  {
    "SEQ": "LGKSGLTILCRD",
    "CLASSIFICATION": "Condition not met"
  },
  {
    "SEQ": "SLLPHAHAPSPL",
    "CLASSIFICATION": "Condition not met"
  },
  {
    "SEQ": "RRAAVGGCLGGW",
    "CLASSIFICATION": "Condition met"
  },
  {
    "SEQ": "GVWCFPVGVFRA",
    "CLASSIFICATION": "Condition not met"
  },
  {
    "SEQ": "FFRSFVVGSVLV",
    "CLASSIFICATION": "Condition not met"
  },
  {
    "SEQ": "VDGSYCGTLASY",
    "CLASSIFICATION": "Condition not met"
  },
  {
    "SEQ": "FFFLVRLCRLCV",
    "CLASSIFICATION": "Condition not met"
  },
  {
    "SEQ": "FGVVCIGVLGGV",
    "CLASSIFICATION": "Condition not met"
  },
  {
    "SEQ": "TPPACTRIPPAN",
    "CLASSIFICATION": "Condition met"
  },
  {
    "SEQ": "TASAGLVAAATI",
    "CLASSIFICATION": "Condition not met"
  },
  {
    "SEQ": "KAGCDYYHRRSF",
    "CLASSIFICATION": "Condition not met"
  },
  {
    "SEQ": "KKKIERKKNKEK",
    "CLASSIFICATION": "Condition met"
  }
]

---

tested on: Saccharomyces cerevisiae; experiment: protein stability index of tFT-peptide fusion (C-terminal peptide) (PSI (0-1 scale)); higher = more stable (slower turnover); settings: genetic background: wild type; temperature: 30 C
REPORTED PROPERTY: protein stability index

[
  {
    "SEQ": "LIFQRKYTAKEF [DTR1 C-terminal 12 aa]",
    "ASSAY VALUE": 0.678
  },
  {
    "SEQ": "AKAQSQALVTGM [PCL6 C-terminal 12 aa]",
    "ASSAY VALUE": 0.685
  },
  {
    "SEQ": "MRLTHKSKKKMK [SUE1 C-terminal 12 aa]",
    "ASSAY VALUE": 0.695
  },
  {
    "SEQ": "RMDEENYEEEFC [UBP11 C-terminal 12 aa]",
    "ASSAY VALUE": 0.707
  },
  {
    "SEQ": "YGTSYVFAISFK [YNL266W C-terminal 12 aa]",
    "ASSAY VALUE": 0.606
  },
  {
    "SEQ": "RQLGSKQRKHRL [ECI1 C-terminal 12 aa]",
    "ASSAY VALUE": 0.82
  },
  {
    "SEQ": "LFFGGEKVHSLK [NGL3 C-terminal 12 aa]",
    "ASSAY VALUE": 0.715
  },
  {
    "SEQ": "RSDTKEPLALLS [VPS20 C-terminal 12 aa]",
    "ASSAY VALUE": 0.646
  },
  {
    "SEQ": "ILPIHQEDPANR [MEP1 C-terminal 12 aa]",
    "ASSAY VALUE": 0.686
  },
  {
    "SEQ": "QLKACQEAARQY [MIX17 C-terminal 12 aa]",
    "ASSAY VALUE": 0.66
  },
  {
    "SEQ": "FFLEECHRIGSK [HEM12 C-terminal 12 aa]",
    "ASSAY VALUE": 0.747
  },
  {
    "SEQ": "TGTSTEAPSAAN [NCL1 C-terminal 12 aa]",
    "ASSAY VALUE": 0.658
  },
  {
    "SEQ": "MGDEYVSSDEDF [HEF3 C-terminal 12 aa]",
    "ASSAY VALUE": 0.686
  },
  {
    "SEQ": "PIQDFIFNLVGE [VTC3 C-terminal 12 aa]",
    "ASSAY VALUE": 0.698
  },
  {
    "SEQ": "NTTHYNDTLLKQ [PHO3 C-terminal 12 aa]",
    "ASSAY VALUE": 0.662
  },
  {
    "SEQ": "KKLSNDGETQAN [DMO2 C-terminal 12 aa]",
    "ASSAY VALUE": 0.655
  },
  {
    "SEQ": "IFFILYTLFKLF [SFT1 C-terminal 12 aa]",
    "ASSAY VALUE": 0.199
  },
  {
    "SEQ": "YNITQQILQFLH [VAC8 C-terminal 12 aa]",
    "ASSAY VALUE": 0.327
  }
]
